# reported melting point; entries follow

What melting point value was documented for this compound, COC(=O)C(CNC(=O)Cc1ccc(OC)c(OC)c1)c1ccc(OC)c(OC)c1 (stereo not drawn) ?
92 to 93 °C

Dear colleague, I am looking for the recorded melting point of the following compound: `O=C(Nc1c[nH]nc1C(=O)NCCc1ccc(Br)cc1)c1ccccn1`
266 to 270 °C

---
Name the reported melting point value associated with the compound `COCCCn1c(=O)[nH]c2ncc(-c3ccc(O)cc3)nc21`
208 to 210 °C

----------
// reported melting point for each item listed
Your answer is read as °C, so omit the unit and give the number.

Quick check: melting point of CCOC(=O)C(=NOC(CC)C(=O)O)c1csc(NC(c2ccccc2)(c2ccccc2)c2ccccc2)n1 (configuration not stated) ?
154

Would you kindly share the measured melting point for `CCCN(c1cc(C)ccn1)c1cccc2c1OC[C@H]2Nc1ccc2c(c1)OC[C@H]2CC(=O)O` ?
146

More entries:
Fill blank: measured melting point of the molecule COC(=O)C1=C(C)NC(C)=C(C(=O)OCc2ccc(OC)cc2)C1c1ccccc1[N+](=O)[O-] (configuration not stated) is ____.
152

----------
Below is a list of entries, each paired with its recorded melting point value.

Reference set (2 entries):
Consider the compound Cn1cc(C(=O)NCc2ccc(Cl)cc2)c(=O)c2cc(CN3CC4CC3CO4)ccc21 (centres undefined) and give its measured melting point.
162 to 163 °C

Reported melting point for `O=C(O)CCCOc1ccc([N+](=O)[O-])cc1` : what is it?
116 to 118 °C

---
Given Cc1c(C)c2c(c(C)c1Br)CC(C)(CBr)O2 (centres undefined) , state its recorded melting point.
60 to 61 °C

For the compound `COc1ccc(C(=O)OC2(c3nc4ccccc4s3)C=CC(=O)C=C2)cc1` , what melting point is on record?
137 °C

----------
melting point overview

Recorded melting point, per entry:
For the compound shown here, `CCOC(=O)c1cnn(-c2cccc(S(=O)(=O)N(C)C)n2)c1Cl` , give the reported melting point.
117 to 120 °C

Entry `COc1cc2c(Nc3ccc(Cl)cc3F)ncnc2cc1OCCNC(=O)OC(C)(C)C` has what melting point?
190 to 191 °C

Report melting point for `CON=CC(C)(C)NC(=O)c1c(Cl)cccc1C(=O)Nc1ccc(OC(F)(F)F)cc1C` please.
197 °C

Entry `Cc1c(Cl)nc(Cl)nc1Cl` : reported melting point = ?
67 to 68 °C

For the compound shown here, CC(C)(Cl)CC1NC(=O)c2ccccc21 (stereo not drawn) , give the reported melting point.
153 to 155 °C

***
Quick one: melting point of `CCOC(=O)CN(C)C(=S)CCc1nc2c(F)c(F)cc(F)c2s1` ?
83 to 85 °C

Give the measured melting point of COc1ncccc1NC(=O)[C@H]1[C@H](c2ccc(S(N)(=O)=O)cc2)C1(C)C (relative stereo) .
216 to 218 °C

// lookup melting point for COC(=O)C(CCSC)NC(=O)c1ccc(NC(=O)C2CC(O)CN2C(=O)OC(C)(C)C)cc1-c1ccccc1 (stereo not drawn)
121 to 123 °C

----------
Reported melting point values follow for various compounds

The following compounds have reported results that may help.
Quick one: melting point of Cn1c(=O)c2c(ncn2CC(O)COC(=O)COc2ccc(Cl)cc2)n(C)c1=O (stereo not drawn) ?
81 to 83 °C

Endpoint output: melting point of `CCOC(=O)CCc1cnc2c(NC(=O)c3c(Cl)cccc3Cl)cccc2c1` . Value?
110 to 111 °C

Which measured melting point value corresponds to `CCCCCOCCOc1ccc(-c2ccc3c(c2)C=C(C(=O)Nc2ccc(CN(C)C4CCOCC4)cc2)CCS3(=O)=O)cc1` ?
188 to 189 °C

What value of melting point has been reported for the following compound? Nc1ncnc2c1ncn2[C@H]1C=C[C@@H](O)CC1 (racemic)
181 to 183 °C

Entry CC1OC(=O)N(c2nc(-c3ccc(C#N)cc3)cs2)C1(C)C (stereo not drawn) : reported melting point = ?
166 to 167 °C

---
Please look up its melting point: `Cc1ccc([N+](=O)[O-])cc1CNC(=O)c1ccccc1`
134 to 137 °C

Could you tell me which melting point is on file for CC1=NN(C)C(=O)C1C(=O)Nc1ccccc1 (stereo not drawn) ?
231 to 233 °C

Consider the compound shown here: `CCOC(=O)c1ccc(C=Cc2ccc(OC)cc2)cc1` What is its recorded melting point?
191 to 192 °C
